Target: UniProt O60341
pIC50: −log10 of the molar value.
value.type: pIC50

>>> df
                                   molecule  target_or_test_system  endpoint_value
0  COC(=O)N(C)c1ccc(-c2c(-c3ccc(C#N)cc3)nc(OC[C@@H]3CCCN(C)C3)c3cncn23)cn1 [Example 49]         UniProt O60341    6.30 to 7.00
1  Cc1ncc(-c2c(-c3ccc(C#N)cc3)nc(N3CCC(N(C)C)CC3)c3cncn23)cc1C(F)F [Example 140]         UniProt O60341    7.00 to 7.30
2  CC(O)CN1CCC[C@@H](COc2cc(-c3ccc(C#N)cc3)c(-c3cnc4ccoc4c3)n3cncc23)C1 (stereo partly shown) [Example 119]         UniProt O60341    7.00 to 7.30
3  CN1CCC[C@@H](COc2nc(-c3ccc(C#N)cc3)c(-c3cnc4c(cnn4C)c3)n3cncc23)C1 [Example 27]         UniProt O60341    7.00 to 7.30

* * *

Hi! I'm sharing some IC50 results obtained with LSD1 (Homo sapiens (Human)).
value.type: IC50

                                    compound  value_type  endpoint_value
 0  CC(C)c1nc2cc(-c3c(-c4ccc(C#N)cc4)cc(OC[C@@H]4CCCN(C)C4)c4cncn34)cnc2n1C [Example 157]        IC50   0.1 to 0.5 µM
 1  CN1CCC[C@@H](COc2nc(-c3ccc(C#N)cc3)c(-c3ccc4c(c3)CCC(=O)N4C)n3cncc23)C1 [Example 24]        IC50   0.1 to 0.5 µM
 2  CN(C)C1CCN(c2nc(-c3ccc(C#N)cc3)c(-c3cnc4ccoc4c3)n3cncc23)CC1 [Example 104]        IC50  0.05 to 0.1 µM
 3  CN(C)C1CCN(c2nc(-c3ccc(C#N)cc3)c(-c3cnc4cccnc4c3)n3cncc23)CC1 [Example 55]        IC50  0.05 to 0.1 µM
 4  CN(C)[C@H]1CCN(c2nc(-c3ccc(C#N)cc3)c(-c3ccc4c(c3)oc(=O)n4C)n3cncc23)C1 [Example 112]        IC50  0.05 to 0.1 µM
 5  CN1CCC[C@@H](COc2cc(-c3ccc(C#N)cc3)c(-c3cnc4c(c3)nc(C3CC3)n4C)n3cncc23)C1 [Example 158]        IC50   0.1 to 0.5 µM
 6  CN1CCC[C@@H](COc2nc(-c3ccc(C#N)cc3)c(-c3ccc4ncsc4c3)n3cncc23)C1 [Example 33]        IC50  0.05 to 0.1 µM
 7  COc1ncc(-c2c(-c3ccc(C#N)cc3)cc(OC[C@@H]3CCCN(C)C3)c3cncn23)cc1N [Example 69]        IC50  0.05 to 0.1 µM
 8  CC(C)(C)OC(=O)N1CC=C(c2c(-c3ccc(C#N)cc3)cc(OC[C@@H]3CCNC3)c3cncn23)CC1 [Example 10]        IC50   0.1 to 0.5 µM
 9  CCn1nnc2cc(-c3c(-c4ccc(C#N)cc4)cc(OC[C@@H]4CCCN(C)C4)c4cncn34)cnc21 [Example 117]        IC50  0.05 to 0.1 µM
10  Cc1ccc(-c2c(-c3ccc(F)cc3)cc(OC[C@@H]3CCNC3)c3cncn23)cc1 [Example 2]        IC50     0.5 to 1 µM
11  CN1C(=O)Cc2cc(-c3c(-c4ccc(C#N)cc4)nc(N4CCC(N(C)C)CC4)c4cncn34)ccc21 [Example 52]        IC50  0.05 to 0.1 µM
12  CCN1CCC[C@@H](COc2cc(-c3ccc(C#N)cc3)c(-c3cnc4c(c3)CCCO4)n3cncc23)C1 [Example 68]        IC50  0.05 to 0.1 µM
13  Cn1ncc2cc(-c3c(-c4ccc(C#N)cc4)nc(OC[C@@H]4CCCN(CC(C)(C)O)C4)c4cncn34)cnc21 [Example 41]        IC50  0.05 to 0.1 µM
14  N#Cc1ccc(-c2cc(OC[C@@H]3CCNC3)c3cncn3c2-c2cnn(C3CCC3)c2)cc1 [Example 7]        IC50  0.05 to 0.1 µM
